experiment: solvent given as SMILES; conditions: in CCO
Quick rule for you: emission maximum at 500 nm or higher means T, lower means F.

I'd appreciate it if you could say whether `CN(C)c1ccc(/C=C2\CC/C(=C\c3ccc(N(C)C)cc3)C2=O)cc1` has emission maximum at least equal to 500 nm. T

Follow-up entry: `N#Cc1cc(-c2ccc(F)cc2)cnc1O` F

Follow-up entry: `O=C(O)c1c2ccccc2nc2ccccc12` F

Follow-up entry: `O=C([O-])c1ccccc1C1=c2cc3c4c(c2Oc2c1cc1c5c2CCCN5CCC1)CCC[N+]=4CCC3` T

Follow-up entry: `N#Cc1c(-c2ccccc2)cc(-c2ccccc2)[nH]c1=S` F

Follow-up entry: COC(=O)C(Cc1ccc2oc(-c3ccc(N(c4ccccc4)c4ccccc4)cc3)nc2c1)NC(=O)OC(C)(C)C (centres undefined) F

Follow-up entry: `CCC1=C(C)C2=Cc3c(I)c(I)c(I)n3[B-](F)(F)[N+]2=C1C` T

Follow-up entry: `CCOC(=O)c1cc(C(=O)OCC)c2cc(N)ccc2n1` T

Follow-up entry: `Nc1ccc2nc3c4ccccc4c(=[NH2+])cc-3oc2c1` T

Follow-up entry: `COC(=O)CNC(=O)CCNc1cccc2ccccc12` F

Follow-up entry: `COc1ccc(OC)c(C=O)c1` F

Follow-up entry: `O=c1c2cc(F)c(O)cc2n(Cc2ccccc2)c2cc(O)c(F)cc12` F

Follow-up entry: `COc1ccc(-c2nc(N)nc(C#N)c2C#N)cc1OC` F

Follow-up entry: `Oc1c(-c2ccco2)cccc1-c1nc2ccccc2s1` T

Follow-up entry: `CC1(C)CC(=O)c2c(F)c(C(F)(F)F)c(F)c(F)c2N1` F

Follow-up entry: `Cc1c(COC(=O)c2ccccc2)n2c(OCC(=O)c3ccccc3)c(C)c(=O)n2c1=O` F

Follow-up entry: `CC(=O)c1c2c(cc3c(N(C)C)cccc13)CCC2` T

Follow-up entry: CC(=O)Nc1ccccc1C(=O)OC1CC(C)CCC1C(C)C (centres undefined) F

Follow-up entry: `O=c1c2cc(F)c(N3CCOCC3)cc2oc2cc(N3CCOCC3)c(F)cc12` F

Follow-up entry: `CCC1(CC)c2cc(C=C(C#N)C#N)ccc2-c2ccc(N(C)C)cc21` T

Follow-up entry: `CC1(C)CC(/C=C/c2ccc(-n3ccnc3)cc2)=CC(=C(C#N)C#N)C1` T

Follow-up entry: `Cc1cc(=O)oc2c3c4c(cc12)CCCN4CCC3` F

Follow-up entry: `N#Cc1ccc2[nH]ccc2c1` F

Follow-up entry: `CCOc1cc2c(cc1/C=C/C1=CC(=C(C#N)C#N)CC(C)(C)C1)c1ccccc1n2CC` T

Follow-up entry: `CN1/C(=C/C=C(/C=C/c2sc3ccccc3[n+]2C)c2ccccc2)Sc2ccccc21` T

Follow-up entry: `CCN(CC)c1ccc2ccc(=O)oc2c1` F

Follow-up entry: `CCN(CC)c1ccc2c(C#N)c(/C=C(\C#N)c3nc4ccccc4s3)c(=O)oc2c1` T

Follow-up entry: `COCCOCCOc1ccc(OCCOCCOC)c(C=O)c1` F

Follow-up entry: `CC(C)CCCCN1CCc2c1ccc1c3c(ccc21)C(=O)CCC3` T

Follow-up entry: `CCN(CC)c1ccc(/C=C/C(=O)c2c(O)cc(C)oc2=O)cc1` T
